assay.remarks: Pharmacokinetic study free base v. tartrate salt, oral gavage
Type: in vivo
assay.context: Sprague-Dawley, rat, plasma; fasted male rats; PO in 20% solutol; nominal 20 mg/kg (18.2 free base, 18.7 tartrate)
measured.parameter: Cmax (ng/mL)
Give just the numeric value; ng/mL need not be written.

Query :: Assign Cmax to the following record: CN1CCN(Cc2ccc(Nc3ncc(Cl)c(Nc4ccccc4S(=O)(=O)N(C)C)n3)cc2)CC1
Result :: 116

----------
assay.remarks: Kinetic solubility in bio-relevant buffers
Format: physicochemical
assay.context: bio-relevant buffers (FaSSIF, fassgf or other biorelevant, thermodynamic from solid); FaSSIF, FeSSIF and SGF; 37° C.; read-out: kinetic solubility in all biorelevant buffers
Structures can show the parent of a compound that is named as a salt.
Listed molecules paired with reported solubility kinetic

| molecule | solubility kinetic |
| --- | --- |
| CN1CCN(Cc2ccc(Nc3ncc(Cl)c(Nc4ccccc4S(=O)(=O)N(C)C)n3)cc2)CC1 [Form A, di-tartrate salt] | > 5000 µg/mL |

Kindly consider the entry below.
Query :: Answer with reported solubility kinetic of CN1CCN(Cc2ccc(Nc3ncc(Cl)c(Nc4ccccc4S(=O)(=O)N(C)C)n3)cc2)CC1.O=C(O)C(O)C(O)C(=O)O [Form D]
Result :: > 5000 µg/mL

----------
assay.remarks: pH solubility
Assay type: physicochemical
assay.context: pH 10.0 buffer, 37 °C, pH 10, aqueous buffer, thermodynamic from solid
measured.parameter: solubility at 24 h (mg/mL)
The response must be a number in mg/mL with no trailing unit.

Query :: Specify solubility at 24 h for CN1CCN(Cc2ccc(Nc3ncc(Cl)c(Nc4ccccc4S(=O)(=O)N(C)C)n3)cc2)CC1.O=C(O)C(O)C(O)C(=O)O [Form D] and stop.
Result :: 0.053

----------
assay.remarks: pH solubility
Assay type: physicochemical
assay.context: pH 4.0 buffer, 37 °C, pH 4, aqueous buffer, thermodynamic from solid
measured.parameter: solubility at 24 h (µg/mL)
Reply numerically in µg/mL, unit not repeated.

Query :: Input CN1CCN(Cc2ccc(Nc3ncc(Cl)c(Nc4ccccc4S(=O)(=O)N(C)C)n3)cc2)CC1.O=C(O)C(O)C(O)C(=O)O [Form D] , output reported solubility at 24 h.
Result :: 230

----------
assay.remarks: Pharmacokinetic study free base v. tartrate salt, oral gavage
Format: in vivo
assay.context: Sprague-Dawley, rat, plasma; fasted male rats; PO in 20% solutol; nominal 20 mg/kg
measured.parameter: Tmax (min)
The reply should contain only the number, in min.

Query :: Hello, please tell me recorded Tmax for this one: CN1CCN(Cc2ccc(Nc3ncc(Cl)c(Nc4ccccc4S(=O)(=O)N(C)C)n3)cc2)CC1 [compound of structure (I)]
Result :: 50

----------
assay.remarks: pH solubility
Type: physicochemical
assay.context: pH 6.0 buffer, 37 °C, pH 6, aqueous buffer, thermodynamic from solid
measured.parameter: solubility at 24 h (µg/mL)
// units = µg/mL; emit number, no label

Query :: Indicate its recorded solubility at 24 h; the compound in question is CN1CCN(Cc2ccc(Nc3ncc(Cl)c(Nc4ccccc4S(=O)(=O)N(C)C)n3)cc2)CC1.O=C(O)C(O)C(O)C(=O)O [Form D]
Result :: 1900

----------
assay.remarks: Relative amounts of parent and active metabolites in plasma after 21 days of dosing
Assay type: in vivo, human
assay.context: 16 mg/M2 dose
Rule: Yes for % in plasma at day 21 at 16 mg/M2 dose (FIG. 102A) not less than 10%, No for anything less.

| compound | category |
| --- | --- |
| CNS(=O)(=O)c1ccccc1Nc1nc(Nc2ccc(CN3CCNCC3)cc2)ncc1Cl [Form M2] | No |
| CNS(=O)(=O)c1ccccc1Nc1nc(Nc2ccc(CN3CCN(C)CC3)cc2)ncc1Cl [Form M3] | Yes |
| CNS(=O)(=O)c1ccccc1Nc1nc(Nc2ccc(CN3CC[N+](C)([O-])CC3)cc2)ncc1Cl [Form M6] | No |

Let us examine a further case.
Query :: # check: % in plasma at day 21 at 16 mg/M2 dose (FIG. 102A) of CN1CCN(Cc2ccc(Nc3ncc(Cl)c(Nc4ccccc4S(=O)(=O)N(C)C)n3)cc2)CC1 [compound of structure (I)] is greater than or equal to 10%
Result :: Yes

----------
assay.remarks: Pharmacokinetic testing of salt forms, oral dosing
Format: in vivo
assay.context: Sprague-Dawley, rat, plasma, 18.2 mg/kg; fasted male rats; PO 14.3-18.7 mg/kg (row Dose); mean; read-out: AUC0-24 hours
measured.parameter: AUC(0-t) (ng·h/mL)
Provide the reading as a plain figure in ng·h/mL.

Query :: Output measured AUC(0-t) for this item: CN1CCN(Cc2ccc(Nc3ncc(Cl)c(Nc4ccccc4S(=O)(=O)N(C)C)n3)cc2)CC1
Result :: 458

----------
assay.remarks: pH solubility
Format: physicochemical
assay.context: pH 8.0 buffer, 37 °C, pH 8, aqueous buffer, thermodynamic from solid
measured.parameter: solubility at 24 h (µg/mL)
Give the value, in units of µg/mL, as a plain number.

Query :: Specify reported solubility at 24 h for the compound shown: CN1CCN(Cc2ccc(Nc3ncc(Cl)c(Nc4ccccc4S(=O)(=O)N(C)C)n3)cc2)CC1.O=C(O)C(O)C(O)C(=O)O [Form D]
Result :: 5

----------
assay.remarks: Pharmacokinetic testing of salt forms, oral dosing
Type: in vivo
assay.context: Sprague-Dawley, rat, plasma, 18.2 mg/kg; fasted male rats; PO 14.3-18.7 mg/kg (row Dose); mean
measured.parameter: Tmax (min)
I only need the number, in min, no unit after it.

Query :: Indicate the recorded Tmax value for this compound: CN1CCN(Cc2ccc(Nc3ncc(Cl)c(Nc4ccccc4S(=O)(=O)N(C)C)n3)cc2)CC1
Result :: 50

----------
Entries and their % after 2 hrs exposure to human hepatocytes
System: human hepatocytes
assay.remarks: Metabolite formation after exposure to human hepatocytes
Assay type: in vitro ADME
assay.context: share of parent or metabolite
Your answer is read as %, so omit the unit and give the number.

| molecule | value.measured |
| --- | --- |
| CN1CCN(Cc2ccc(Nc3ncc(Cl)c(Nc4ccccc4S(=O)(=O)N(C)C)n3)cc2)CC1 | 55 |
| CNS(=O)(=O)c1ccccc1Nc1nc(Nc2ccc(CN3CCNCC3)cc2)ncc1Cl [Form M2] | 2 |

Proceeding to the next molecule to report its % after 2 hrs exposure to human hepatocytes.
Query :: Dear colleague, please send me the reported % after 2 hrs exposure to human hepatocytes for CNS(=O)(=O)c1ccccc1Nc1nc(Nc2ccc(CN3CCN(C)CC3)cc2)ncc1Cl [Form M3] when you can.
Result :: 13

----------
assay.remarks: Kinetic solubility in bio-relevant buffers
Assay type: physicochemical
assay.context: FeSSIF, 37 °C, thermodynamic from solid; 24 hours
measured.parameter: solubility at 24 h (µg/mL)
# number only, unit µg/mL dropped from output

Query :: For the compound CN1CCN(Cc2ccc(Nc3ncc(Cl)c(Nc4ccccc4S(=O)(=O)N(C)C)n3)cc2)CC1.O=C(O)C(O)C(O)C(=O)O [Form D] , report solubility at 24 h.
Result :: 4600

----------
assayed.target: AXL (Homo sapiens, UniProt P30530)
Sequence (P30530 26-894): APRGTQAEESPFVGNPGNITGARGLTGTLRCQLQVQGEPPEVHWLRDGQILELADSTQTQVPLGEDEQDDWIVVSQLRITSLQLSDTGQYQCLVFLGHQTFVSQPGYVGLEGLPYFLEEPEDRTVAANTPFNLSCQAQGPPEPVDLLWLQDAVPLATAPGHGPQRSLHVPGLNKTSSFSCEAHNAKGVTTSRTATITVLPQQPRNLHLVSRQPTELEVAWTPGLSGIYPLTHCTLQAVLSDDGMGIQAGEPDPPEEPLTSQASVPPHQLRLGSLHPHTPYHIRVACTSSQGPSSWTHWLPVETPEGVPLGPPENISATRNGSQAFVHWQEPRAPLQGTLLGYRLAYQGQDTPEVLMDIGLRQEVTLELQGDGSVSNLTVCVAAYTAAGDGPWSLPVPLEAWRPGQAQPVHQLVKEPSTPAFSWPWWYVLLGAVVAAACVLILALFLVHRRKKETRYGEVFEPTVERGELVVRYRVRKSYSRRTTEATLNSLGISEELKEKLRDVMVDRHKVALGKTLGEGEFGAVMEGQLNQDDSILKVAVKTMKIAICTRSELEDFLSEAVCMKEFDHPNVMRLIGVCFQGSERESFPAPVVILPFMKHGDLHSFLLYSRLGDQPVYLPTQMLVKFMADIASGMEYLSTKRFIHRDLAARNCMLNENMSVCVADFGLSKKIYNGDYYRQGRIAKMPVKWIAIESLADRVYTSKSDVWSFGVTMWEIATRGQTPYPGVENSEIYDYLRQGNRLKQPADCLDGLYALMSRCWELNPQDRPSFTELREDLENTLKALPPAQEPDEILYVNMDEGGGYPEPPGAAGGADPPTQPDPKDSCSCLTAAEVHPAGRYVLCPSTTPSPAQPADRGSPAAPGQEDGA
measured.parameter: pIC50
Note on units: pIC50 is unitless, being -log10 of a concentration expressed in mol/L.

| compound | pIC50 |
| --- | --- |
| CNS(=O)(=O)c1ccccc1Nc1nc(Nc2ccc(CN3CCN(C)CC3)cc2)ncc1Cl [Form M3] | 8.06 |
| CN(C)S(=O)(=O)c1ccccc1Nc1nc(Nc2ccc(CN3CC[N+](C)([O-])CC3)cc2)ncc1Cl [Form M7] | 7.63 |
| CN(C)S(=O)(=O)c1ccccc1Nc1nc(Nc2ccc(CN3CCNCC3)cc2)ncc1Cl [Form M4] | 8.03 |

Query :: State recorded pIC50 with AXL (Homo sapiens, UniProt P30530), entry CNS(=O)(=O)c1ccccc1Nc1nc(Nc2ccc(CN3CC[N+](C)([O-])CC3)cc2)ncc1Cl [Form M6] , no comment.
Result :: 7.80

Query :: Recall the reported pIC50 of CNS(=O)(=O)c1ccccc1Nc1nc(Nc2ccc(CN3CCNCC3)cc2)ncc1Cl [Form M2] on AXL (Homo sapiens, UniProt P30530) and write it down.
Result :: 8.07

----------
Test system: human hepatocytes
assay.remarks: Metabolite formation after exposure to human hepatocytes
Type: in vitro ADME
assay.context: share of parent or metabolite
measured.parameter: % after 2 hrs exposure to human hepatocytes (%)
Lab book: enter the figure in %, no units written.

| molecule | unit.annotation | value.measured |
| --- | --- | --- |
| CN(C)S(=O)(=O)c1ccccc1Nc1nc(Nc2ccc(CN3CC[N+](C)([O-])CC3)cc2)ncc1Cl [Form M7] | % | 15 |
| C=C1C=CC(=Nc2ncc(Cl)c(Nc3ccccc3S(=O)(=O)N(C)C)n2)C=C1 [Form M5] | % | 2 |
| CN(C)S(=O)(=O)c1ccccc1Nc1nc(Nc2ccc(CN3CCNCC3)cc2)ncc1Cl [Form M4] | % | 8 |

Attention now shifts to the item below.
Query :: Identify the reported % after 2 hrs exposure to human hepatocytes for the following entry. CNS(=O)(=O)c1ccccc1Nc1nc(Nc2ccc(CN3CC[N+](C)([O-])CC3)cc2)ncc1Cl [Form M6]
Result :: 3
